Value source: patent US20240301071A1

Target: T1, histidine-tagged human SIRPA v1 (Novoprotein) (human, UniProt P78324 31-370, limits assumed)
T1 construct: bought, soluble; also called huSIRPA; soluble huSIRPA; not shown: histidine tag
T1 sequence (P78324 31-370 limits assumed): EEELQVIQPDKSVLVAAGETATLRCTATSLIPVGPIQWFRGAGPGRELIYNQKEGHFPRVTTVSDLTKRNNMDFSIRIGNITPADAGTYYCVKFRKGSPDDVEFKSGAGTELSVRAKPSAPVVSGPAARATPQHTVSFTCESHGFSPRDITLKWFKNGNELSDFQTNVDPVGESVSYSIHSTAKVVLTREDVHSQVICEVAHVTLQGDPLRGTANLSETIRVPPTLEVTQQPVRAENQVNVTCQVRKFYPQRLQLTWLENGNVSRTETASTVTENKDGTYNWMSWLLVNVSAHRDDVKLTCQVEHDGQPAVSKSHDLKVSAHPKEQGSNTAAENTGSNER
Experiment: BLI (Octet), antibody on anti-human IgG Fc sensor, His-huSIRPA in solution, single-curve 1:1 fit
Measured attribute: koff (s⁻¹)

- 3F9-11 (antibody, human IgG1, V domains shown, also called mAb 3F9-11) VH: EVQLLESGGGLVQPGGSLRLSCAASGFTFSSYAMSWVRQAPGKGLEWVATISEYGGSYTYYAESVKGRFTISRDNSKNTLYLQMNSLRAEDTAVYYCARPPYDDYYGGFRYWGQGTLVTVSS VL: DIQLTQSPSSLSASVGDRVTITCRASKSVSSGGYSYMHWYQQKPGKAPKLLIYLASNLESGVPSRFSGSGSGTDFTLTISSVQPEDFATYYCQHNRELPITFGQGTKLEIK: 0.000192
- 3F9-12 (antibody, human IgG1, V domains shown, also called mAb 3F9-12) VH: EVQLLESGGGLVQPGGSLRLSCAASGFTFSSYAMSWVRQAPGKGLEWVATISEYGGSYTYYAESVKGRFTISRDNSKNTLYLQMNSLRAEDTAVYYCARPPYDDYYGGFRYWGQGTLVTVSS VL: DIQLTQSPSSLSASVGDRVTITCRASKSVSSGGYSYMHWYQQKPGKAPKLLIYLASNLESGVPSRFSGSGSGTDFTLTISSVQPEDFATYYCQHNRELPPTFGQGTKLEIK: 5.96e-05
